FYI, the data here is from the supplement of paper PMC10724198.

System: Saccharomyces cerevisiae
RUN_DESCRIPTION: protein stability index of tFT-peptide fusion (C-terminal peptide) (PSI (0-1 scale)); higher = more stable (slower turnover)
CONDITION_SET: genetic background: das1 deletion; temperature: 37 C
Provide the reported protein stability index of each item.
Enter the number alone.

Give protein stability index (Saccharomyces cerevisiae) of the following sequence: CAGLLSVSFWLF
0.597

And then SWIKRYEITCIL , what is it?
0.597

And then RNKIWCTVIMRL , what is it?
0.597

###

Test system: Saccharomyces cerevisiae
RUN_DESCRIPTION: protein stability index of tFT-peptide fusion (C-terminal peptide) (PSI (0-1 scale)); higher = more stable (slower turnover)
CONDITION_SET: genetic background: das1 deletion; temperature: 30 C
MEASUREMENT_KIND: protein stability index
Enter the number alone.

Any idea what its protein stability index is? The sequence is LAFSGGLANSIA [DSE4 C-terminal 12 aa]
0.712

And then ESEKELYNATLA [NHP6A C-terminal 12 aa] , what is it?
0.697

And then VKNWSKSILGFN [MSC1 C-terminal 12 aa] , what is it?
0.71

And then EWSFASSGYKDD [PPN1 C-terminal 12 aa] , what is it?
0.711

And then HCLSLCTIQKMI [YOR231C-A C-terminal 12 aa] , what is it?
0.708

And then SDEGHAHEDCAK [LOG1 C-terminal 12 aa] , what is it?
0.679

And then VLGDCQHVTSLL [HST4 C-terminal 12 aa] , what is it?
0.697

And then KHKSSSYANRDS [DUS3 C-terminal 12 aa] , what is it?
0.694

And then SSKKNNKFRRIR [CST9 C-terminal 12 aa] , what is it?
0.685

And then YLVHNNADEKSN [CUZ1 C-terminal 12 aa] , what is it?
0.704

And then TTTGDKKSEEKQ [TCB2 C-terminal 12 aa] , what is it?
0.685

And then TPGGGGFGQYKD [OXP1 C-terminal 12 aa] , what is it?
0.709

And then YVKQQHGQSQND [EAF6 C-terminal 12 aa] , what is it?
0.695

And then NKVDINMEQEKF [UGO1 C-terminal 12 aa] , what is it?
0.699

And then PEKGSGFNTNLG [DCS2 C-terminal 12 aa] , what is it?
0.697

And then AGALAAVAAMLL [TIR4 C-terminal 12 aa] , what is it?
0.707

And then FCAAYQGKKNNK [SLN1 C-terminal 12 aa] , what is it?
0.696

And then KVEFSKSETKTL [MSL1 C-terminal 12 aa] , what is it?
0.71

And then GKEVRKLRPENQ [ILV5 C-terminal 12 aa] , what is it?
0.691

And then DNKPKLSDVEKD [GEA2 C-terminal 12 aa] , what is it?
0.698

And then RLTSRSGSANRA [SAC7 C-terminal 12 aa] , what is it?
0.706

And then EHTILSDSDETH [RIM15 C-terminal 12 aa] , what is it?
0.71

And then KDVETLSVSDEK [SEO1 C-terminal 12 aa] , what is it?
0.686
